- experimental_system: human factor Xa (Homo sapiens, UniProt P00742)
- Construct: purchased Enzyme Research Laboratories, South Bend, Ind
- Sequence (P00742 235-488 limits assumed): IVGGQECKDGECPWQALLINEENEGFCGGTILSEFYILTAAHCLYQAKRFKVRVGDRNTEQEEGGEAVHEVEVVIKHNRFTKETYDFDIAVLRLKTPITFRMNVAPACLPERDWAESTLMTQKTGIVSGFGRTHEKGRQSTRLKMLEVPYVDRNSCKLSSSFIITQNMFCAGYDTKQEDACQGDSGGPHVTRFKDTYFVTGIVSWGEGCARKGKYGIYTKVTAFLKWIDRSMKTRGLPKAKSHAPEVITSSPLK
- Sequence (P00742 41-179 partner limits assumed): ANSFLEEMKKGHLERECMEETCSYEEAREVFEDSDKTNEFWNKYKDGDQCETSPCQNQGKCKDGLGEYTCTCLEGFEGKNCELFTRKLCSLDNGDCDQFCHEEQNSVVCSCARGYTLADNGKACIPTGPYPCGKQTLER
- method: Inhibition of human factor Xa (chromogenic substrate S2222), inhibitory constant Ki
- Format: biochemical
- condition_info: S2222, pH 7.5, 30 minutes, read-out: Ki values for inhibition of Serine Proteases: Factor Xa
pKi: −log10 of the molar value. Counter-ions that a name gives are not always drawn.
Each record here notes measured pKi.

Worked set:
* NCCCC[C@H](NC(=O)Cn1nc(Cc2ccccc2)nc1-c1ccccc1)B(O)O | 4.30 to 6.30
* CC1(C)[C@@H]2C[C@H]3OB([C@H](CCCNC(=N)N)NC(=O)c4ccc(-c5ccccc5)cc4F)O[C@@]3(C)[C@H]1C2 | > 6.30
* CC(C)(C)NS(=O)(=O)c1ccccc1-c1ccc(C(=O)N[C@@H](CCCNC(=N)N)B2O[C@@H]3C[C@@H]4C[C@@H](C4(C)C)[C@]3(C)O2)c(Cl)c1 | > 6.30

Please fill in: pKi reported for Cc1nc(-c2ccccc2)ncc1C(=O)N[C@@H](CCCCN)B1O[C@@H]2C[C@@H]3C[C@@H](C3(C)C)[C@]2(C)O1 [Example 3458, hydrochloride] = < 3.30

Please fill in: pKi reported for CC(C)(C)OC(=O)Nc1cccc(-c2ccc(C(=O)N[C@@H](CCCNC(=N)N)B3OC4CC5CC(C5(C)C)C4(C)O3)o2)c1 (single isomer, unassigned) = > 6.30

Please fill in: pKi reported for `NCCCC[C@H](NC(=O)Cn1cnc(Cc2ccccc2)n1)B(O)O` = 4.30 to 6.30

Please fill in: pKi reported for CC(C)(C)OC(=O)Nc1cccc(-c2ccc(C(=O)N[C@@H](CCCNC(=N)N)B3OC4CC5CC(C5(C)C)C4(C)O3)s2)c1 (single isomer, unassigned) = > 6.30

Source listed as patent US5698538A.
